Please provide measured GI50 for the entries that follow.
- System: HT-29
- protocol-description: NCI tumour cell line growth inhibition, 48 h
Activity calls are given as the source filed them. Rule as the data show it: active = GI50 up to about 1.1 µM and inactive = higher.

Reported GI50 for COC(=O)C(C(=O)C(=O)Nc1ccc([N+](=O)[O-])cc1)c1nc2ccc([N+](=O)[O-])cc2nc1O (stereo not given) was > 100 µM (inactive)

Reported GI50 for CCN1C(=O)/C(=C2\SC(c3ccccc3)(c3ccccc3)c3ccccc32)SC1=S was > 100 µM (inactive)

Reported GI50 for CC(=N\N)/C(C)=N/N=C(C)/C(C)=N/N was > 100 µM (inactive)

Reported GI50 for CCCCSCC(NC(=O)/C=C/c1c(C)[nH]c(=O)[nH]c1=O)C(=O)OC (stereo not given) was 102 µM (inactive)

Reported GI50 for CCCC1CC(=O)NC(=O)C1C(=O)OC(C)(C)C (stereo not given) was > 100 µM (inactive)

Reported GI50 for CCCCC1=CSC(c2ccccc2)=C(c2ccccc2)S1 was 33.6 µM (inactive)

Reported GI50 for COc1cc2oc(=O)cc(C)c2c(OC)c1OC(C)=O was > 100 µM (inactive)

Reported GI50 for COc1cc(C2c3cc4c(cc3[C@@H](NCCN3CCOCC3)C3COC(=O)[C@H]23)OCO4)cc(OC)c1O (stereo not given in full) was 5.73 µM (inactive)

Reported GI50 for COc1ccc(C2C(C#N)=C(S)N(C3OC(CO)C(O)C(O)C3O)C(C)=C2C(C)=O)cc1 (stereo not given) was > 100 µM (inactive)

Reported GI50 for COc1ccn(CC(=O)c2cc3ccccc3[nH]2)c(=O)n1 was > 100 µM (inactive)
